Assay: Oral bioavailability in rat
Format: ADME, organism-based
Conditions: in vivo
MEASUREMENT_LABEL: bioavailability (%)
Express the result in % but write the number alone.

Could you share which bioavailability value was measured for CC(C)=CCC/C(C)=C/CNCCNC1C2CC3CC(C2)CC1C3 (stereo unspecified) ?
12

----------
Experiment: AUC(0 to 24 hrs) in rat at 13 mg/kg, po
Type: ADME, organism-based
Design: time < 24 hr, dose 13 mg/kg, route oral
Conditions: plasma
MEASUREMENT_LABEL: AUC(0-t) at 24 h (ng·h/mL)
Express the result in ng·h/mL but write the number alone.

Could you share which AUC(0-t) at 24 h value was measured for CC(C)=CCC/C(C)=C/CNCCNC1C2CC3CC(C2)CC1C3 (stereo unspecified) ?
2330
